target.of.assay: Anoctamin-1 (Mus musculus) (UniProt Q8BHY3)
Sequence (Q8BHY3 whole entry, looked up): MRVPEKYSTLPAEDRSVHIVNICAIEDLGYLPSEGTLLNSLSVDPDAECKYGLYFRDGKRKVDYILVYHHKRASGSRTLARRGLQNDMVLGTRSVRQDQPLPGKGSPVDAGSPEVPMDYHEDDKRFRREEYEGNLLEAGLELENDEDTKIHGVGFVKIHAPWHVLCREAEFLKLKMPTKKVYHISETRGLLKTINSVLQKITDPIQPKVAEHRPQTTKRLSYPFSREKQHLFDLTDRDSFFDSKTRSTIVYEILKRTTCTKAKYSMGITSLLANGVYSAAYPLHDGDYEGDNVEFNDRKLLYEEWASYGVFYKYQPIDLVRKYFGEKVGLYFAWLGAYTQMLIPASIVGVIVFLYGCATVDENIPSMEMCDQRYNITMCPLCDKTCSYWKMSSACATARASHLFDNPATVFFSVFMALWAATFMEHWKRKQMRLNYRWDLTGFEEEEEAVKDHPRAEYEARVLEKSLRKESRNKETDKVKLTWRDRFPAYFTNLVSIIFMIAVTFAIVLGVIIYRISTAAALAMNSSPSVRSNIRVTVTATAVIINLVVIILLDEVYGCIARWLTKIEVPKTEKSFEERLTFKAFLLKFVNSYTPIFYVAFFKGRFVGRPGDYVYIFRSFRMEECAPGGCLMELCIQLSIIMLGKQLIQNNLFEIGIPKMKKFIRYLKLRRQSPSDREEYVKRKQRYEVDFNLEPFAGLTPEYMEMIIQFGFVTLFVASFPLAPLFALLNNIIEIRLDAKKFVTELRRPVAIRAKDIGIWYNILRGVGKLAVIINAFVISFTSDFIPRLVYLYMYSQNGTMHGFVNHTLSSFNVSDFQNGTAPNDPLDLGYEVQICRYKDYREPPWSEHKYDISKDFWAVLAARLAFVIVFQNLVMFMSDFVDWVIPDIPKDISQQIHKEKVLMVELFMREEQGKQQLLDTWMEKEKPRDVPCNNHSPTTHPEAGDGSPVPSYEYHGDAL
assay: blockers of mouse ANO1 Ca-activated Cl channel – cell-based, HTS, primary screen (AID 588511)
recorded.conditions: HEK293 TMEM16A/YFP iodide influx fluorescence, ionomycin; at 10 µM
About 3,600 (1.2%) of roughly 310,000 compounds were called active.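 The calls were made as follows: active = ratio plate-corrected score three or more library SD toward inhibition, starting fluorescence score within five deviations; inactive = the rest.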 This is one part of a sample in which actives are shown more often than they occur.
Field 'call' accepts active, inactive

Worked examples, 5 compounds total:
{"compound": "CN1CCC(=O)N([C@H](CO)Cc2ccccc2)CC1", "label": "inactive"}
{"compound": "Cc1cccc(-n2c(SCC(N)=O)nc3c(c2=O)C2(CCCCC2)Cc2ccccc2-3)c1", "label": "active"}
{"compound": "CCOC(=O)C1=C(CN2CCc3ccccc32)NC(=O)NC1c1ccc(Cl)cc1 (stereo not given)", "label": "inactive"}
{"compound": "Cc1nc2c(ncn2-c2ccccc2)c(=O)n1NC(=O)CN1CCCC1", "label": "inactive"}
{"compound": "Oc1c(Cl)cc(Cl)c(Cl)c1Cc1c(O)c(Cl)cc(Cl)c1Cl", "label": "active"}

### Prompt Which outcome did this test record for the compound COc1ccc(S(=O)(=O)N2CCN(C(=S)NCC3CCCO3)CC2)cc1OC (stereo not given) ?
### Response inactive

### Prompt Which outcome did this test record for the compound `C[C@H]1CCC(=O)N([C@H](CSc2ccccc2)Cc2ccccc2)CC1` ?
### Response active

### Prompt Which outcome did this test record for the compound `Cc1cc(N=Nc2ccc3ccccc3c2)ccc1O` ?
### Response inactive
